Target: Human FRA on IGROV-1 human ovarian adenocarcinoma cells (human, UniProt P15328 25-234)
Sequence (P15328 25-234 limits assumed): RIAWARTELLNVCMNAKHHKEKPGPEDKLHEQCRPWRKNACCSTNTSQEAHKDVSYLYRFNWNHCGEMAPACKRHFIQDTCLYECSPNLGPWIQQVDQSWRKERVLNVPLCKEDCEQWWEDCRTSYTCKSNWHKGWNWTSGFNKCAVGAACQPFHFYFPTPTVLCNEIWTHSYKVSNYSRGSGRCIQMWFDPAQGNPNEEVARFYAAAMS
Assay: cell-based or functional assay
Label yes (1) for high-side INTL % (60 min) (at or above 40%) and no (0) for low-side INTL % (60 min) (below it).

binder	label
MORAb-003 anti-FRA antibody, lot NB859-25 (harvested 14 days after initiation of culture) (antibody, human IgG1, kappa, V domains shown, N-linked neutral glycans at Asn299 in SEQ ID NO: 5, also called Day 14 harvest; positive control (round 3)) VH: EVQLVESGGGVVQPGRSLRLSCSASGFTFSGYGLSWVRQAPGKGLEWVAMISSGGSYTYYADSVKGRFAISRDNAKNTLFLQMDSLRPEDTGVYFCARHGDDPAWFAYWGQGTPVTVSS VL: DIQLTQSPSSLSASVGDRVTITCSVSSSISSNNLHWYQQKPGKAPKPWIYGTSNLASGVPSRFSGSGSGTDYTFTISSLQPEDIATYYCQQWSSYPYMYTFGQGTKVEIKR	yes (1)
MORAb-003 anti-FRA antibody, lot NB810-10 (positive control; harvested 14 days after initiation of culture) (antibody, human IgG1, kappa, V domains shown, N-linked neutral glycans at Asn299 in SEQ ID NO: 5, also called Pos. ctl; positive control (round 1)) VH: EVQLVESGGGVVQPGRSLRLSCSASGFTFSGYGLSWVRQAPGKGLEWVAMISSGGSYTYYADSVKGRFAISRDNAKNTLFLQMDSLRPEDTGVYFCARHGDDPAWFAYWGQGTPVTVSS VL: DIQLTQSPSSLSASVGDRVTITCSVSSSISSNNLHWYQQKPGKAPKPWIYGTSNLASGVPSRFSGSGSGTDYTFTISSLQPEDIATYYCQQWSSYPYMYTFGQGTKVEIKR	no (0)
MORAb-003 anti-FRA antibody, lot NB859-28 (low DO; harvested 14 days after initiation of culture) (antibody, human IgG1, kappa, V domains shown, N-linked neutral glycans at Asn299 in SEQ ID NO: 5, also called low DO (round 3)) VH: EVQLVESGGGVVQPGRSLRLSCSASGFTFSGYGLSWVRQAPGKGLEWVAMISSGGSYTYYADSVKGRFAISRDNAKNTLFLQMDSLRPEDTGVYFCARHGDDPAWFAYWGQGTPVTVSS VL: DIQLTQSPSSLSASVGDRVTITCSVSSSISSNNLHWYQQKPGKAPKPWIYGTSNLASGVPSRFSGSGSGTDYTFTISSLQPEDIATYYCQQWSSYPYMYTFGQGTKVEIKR	yes (1)

*Q* Does the reported INTL % (60 min) for MORAb-003 anti-FRA antibody, lot NB809-65 (positive control; harvested 13 days after initiation of culture) (antibody, human IgG1, kappa, V domains shown, N-linked neutral glycans at Asn299 in SEQ ID NO: 5, also called Pos. ctl; positive control (round 2)) VH: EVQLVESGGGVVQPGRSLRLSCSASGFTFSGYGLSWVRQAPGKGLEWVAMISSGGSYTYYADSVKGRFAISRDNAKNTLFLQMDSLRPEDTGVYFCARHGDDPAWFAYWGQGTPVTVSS VL: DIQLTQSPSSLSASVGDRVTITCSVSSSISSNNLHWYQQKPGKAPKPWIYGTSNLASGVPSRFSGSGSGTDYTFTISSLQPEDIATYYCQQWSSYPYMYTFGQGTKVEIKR fall at or above the 40% mark?
*A* no (0)

Measured values drawn from patent US20120164137A1 for this set.
